src = patent US8716303B2

Molecular target: Jak2 (a.a. 828-1132) (Homo sapiens, UniProt O60674)
Construct: Jak2 (a.a. 828-1132); His tag (N); made in house; host or cells: insect cells (baculovirus)
Sequence (O60674 828-1132): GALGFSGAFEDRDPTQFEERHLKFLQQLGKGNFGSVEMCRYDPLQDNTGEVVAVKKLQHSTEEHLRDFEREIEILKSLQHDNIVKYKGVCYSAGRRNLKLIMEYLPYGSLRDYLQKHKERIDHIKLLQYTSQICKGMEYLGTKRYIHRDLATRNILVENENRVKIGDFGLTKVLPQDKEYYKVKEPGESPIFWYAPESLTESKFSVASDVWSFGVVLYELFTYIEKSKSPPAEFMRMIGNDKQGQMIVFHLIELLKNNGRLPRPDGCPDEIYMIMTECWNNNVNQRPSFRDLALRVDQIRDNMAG
Test: In vitro JAK kinase assay (HTRF, phosphorylation of a biotinylated peptide), JAK2, reported as JAK2/JAK1 ratio
Type: biochemical
Settings: Assay Conditions 1 mM ATP
Structures can show the parent of a compound that is named as a salt.
quantity measured: JAK2/JAK1 IC50 ratio

Example entries and their recorded answers appear below.
Please respond with reported JAK2/JAK1 IC50 ratio (system Jak2 (a.a. 828-1132) (Homo sapiens, UniProt O60674)) for CS(=O)(=O)c1nc(N2CC[C@H](C(CF)n3cc(-c4ncnc5[nH]ccc45)cn3)C2)c(F)cc1F (stereo partly drawn) [Example 132, trifluoroacetate] .
8.9

Please respond with reported JAK2/JAK1 IC50 ratio (system Jak2 (a.a. 828-1132) (Homo sapiens, UniProt O60674)) for N#CC[C@@H]([C@H]1CCN(c2nc(Cl)c(CO)cc2F)C1)n1cc(-c2ncnc3[nH]ccc23)cn1 [Example 90, trifluoroacetate] .
4.3

(1) N#CC[C@@H]([C@H]1CCN(c2nc3ccsc3cc2C#N)C1)n1cc(-c2ncnc3[nH]ccc23)cn1
(2) N#CCC(C1CCN(c2nc3cccc(OC(F)F)c3o2)C1)n1cc(-c2ncnc3[nH]ccc23)cn1 (single isomer, unassigned)
(3) N#CCC(n1cc(-c2ncnc3[nH]ccc23)cn1)C1(F)CCN(c2nc3cccnc3o2)C1 (single isomer, unassigned) [31, Step 4b, enantiomer 2]
(4) N#CCC(C1CCN(c2ccnc(S)n2)C1)n1cc(-c2ncnc3[nH]ccc23)cn1 (single isomer, unassigned)
(5) COCc1ccnc(N2CC[C@H]([C@H](CC#N)n3cc(-c4ncnc5[nH]ccc45)cn3)C2)c1C#N [Example 96, tris(trifluoroacetate)]
Put the items in sequence by JAK2/JAK1 IC50 ratio, from largest down. # list labels per requested ordering
5, 2, 1, 4, 3

---

Target: Jak2 (a.a. 828-1132) (Homo sapiens, UniProt O60674)
Construct: Jak2 (a.a. 828-1132); His tag (N); made in house; host or cells: insect cells (baculovirus)
Assay: In vitro JAK kinase assay (HTRF, phosphorylation of a biotinylated peptide), JAK2, reported as JAK2/JAK1 ratio
Format: biochemical
Settings: Assay Conditions Km (ATP 90 μM for Jak1, 30 μM for Jak2)
quantity measured: JAK2/JAK1 IC50 ratio

Example entries and their recorded answers appear below.
Report measured JAK2/JAK1 IC50 ratio; entry is N#CCC(C1CCN(c2nccc(Cl)n2)C1)n1cc(-c2ncnc3[nH]ccc23)cn1 (single isomer, unassigned) [Example 4a]
8.8

Report measured JAK2/JAK1 IC50 ratio; entry is CC(C)Nc1ccnc(N2CCC(C(CC#N)n3cc(-c4ncnc5[nH]ccc45)cn3)C2)n1 (stereo not shown)
4.7

Report measured JAK2/JAK1 IC50 ratio; entry is N#CCC(C1CCN(c2nc3ccccc3o2)C1)n1cc(-c2ncnc3[nH]ccc23)cn1 (single isomer, unassigned) [9, Step 3b]
6.3

Report measured JAK2/JAK1 IC50 ratio; entry is N#CCC(C1CCN(c2cccc(Cl)[n+]2[O-])C1)n1cc(-c2ncnc3[nH]ccc23)cn1 (single isomer, unassigned)
7.4

Report measured JAK2/JAK1 IC50 ratio; entry is N#CCC(C1CCN(c2ccnc(Cl)n2)C1)n1cc(-c2ncnc3[nH]ccc23)cn1 (single isomer, unassigned) [3, Step 2b]
8.5

(P) N#CCC(C1CCN(c2nccc(Cl)n2)C1)n1cc(-c2ncnc3[nH]ccc23)cn1 (single isomer, unassigned) [Example 4b]
(Q) N#CCC(C1CCN(c2nc3cc(F)cnc3o2)C1)n1cc(-c2ncnc3[nH]ccc23)cn1 (single isomer, unassigned)
Hello, I am sorting some records. Could you say if P or Q has the smaller JAK2/JAK1 IC50 ratio value? Give the label under which the chosen entry appears.
P
(P: 3.7, Q: 6.8)

---

Each record here notes measured JAK2/JAK1 IC50 ratio.
Molecular target: Jak2 (a.a. 828-1132) (Homo sapiens)
Construct: Jak2 (a.a. 828-1132); His tag (N); made in house; host or cells: insect cells (baculovirus)
Test: In vitro JAK kinase assay (HTRF, phosphorylation of a biotinylated peptide), JAK2, reported as JAK2/JAK1 ratio
Type: biochemical
Conditions: Assay Conditions 1 mM ATP
Structures can show the parent of a compound that is named as a salt.

Report measured JAK2/JAK1 IC50 ratio; entry is N#CCC(C1CCN(c2nc3cccc(C#N)c3o2)C1)n1cc(-c2ncnc3[nH]ccc23)cn1 (single isomer, unassigned)
>11.4

Report measured JAK2/JAK1 IC50 ratio; entry is N#CCC(C1CCN(c2ccnc(C(=O)Nc3ccccc3)c2)C1)n1cc(-c2ncnc3[nH]ccc23)cn1 (single isomer, unassigned)
>11.8

Report measured JAK2/JAK1 IC50 ratio; entry is Cc1cccc(N2CC[C@H]([C@H](CC#N)n3cc(-c4ncnc5[nH]ccc45)cn3)C2)c1C#N [Example 53, trifluoroacetate salt]
>7.7

# next compound below
Report measured JAK2/JAK1 IC50 ratio; entry is CC(F)c1ccnc(N2CC[C@H]([C@H](CC#N)n3cc(-c4ncnc5[nH]ccc45)cn3)C2)c1C#N (stereo partly shown) [Example 136, trifluoroacetate]
>5

---

Molecular target: Jak2 (a.a. 828-1132) (Homo sapiens)
Construct: Jak2 (a.a. 828-1132); His tag (N); made in house; host or cells: insect cells (baculovirus)
Assay: In vitro JAK kinase assay (HTRF, phosphorylation of a biotinylated peptide), JAK2, reported as JAK2/JAK1 ratio
Format: biochemical
Settings: Assay Conditions 1 mM ATP
Counter-ions that a name gives are not always drawn.
quantity measured: JAK2/JAK1 IC50 ratio

Report measured JAK2/JAK1 IC50 ratio; entry is N#CC[C@@H]([C@H]1CCN(c2nccc(I)c2C#N)C1)n1cc(-c2ncnc3[nH]ccc23)cn1 [Example 122, trifluoroacetate]
188.0

(a) N#CC[C@@H]([C@H]1CCN(c2nccnc2C#N)C1)n1cc(-c2ncnc3[nH]ccc23)cn1 [Example 51, trifluoroacetate]
(b) N#CCC(C1CCN(c2ccccc2C#N)C1)n1cc(-c2ncnc3[nH]ccc23)cn1 (stereo not drawn) [Example 52, trifluoroacetate salt]
Parameter check: reported JAK2/JAK1 IC50 ratio is higher for which label, a or b ? Give the label under which the chosen entry appears.
a

(1) N#CC[C@@H]([C@H]1CCN(c2ccc(Cl)nc2Cl)C1)n1cc(-c2ncnc3[nH]ccc23)cn1 [Example 125, trifluoroacetate]
(2) N#CCC(C1CCN(c2nc3c(F)cccc3o2)C1)n1cc(-c2ncnc3[nH]ccc23)cn1 (single isomer, unassigned)
Hello, I am sorting some records. Could you say if 1 or 2 has the smaller JAK2/JAK1 IC50 ratio value? Give the label under which the chosen entry appears.
2

---

Target: Jak2 (a.a. 828-1132) (Homo sapiens, UniProt O60674)
Construct: Jak2 (a.a. 828-1132); His tag (N); made in house; host or cells: insect cells (baculovirus)
Assay: In vitro JAK kinase assay (HTRF, phosphorylation of a biotinylated peptide), JAK2, reported as JAK2/JAK1 ratio
Format: biochemical
Settings: Assay Conditions 1 mM ATP
Where a name gives a salt, the structure may show the parent alone.
Each record here notes measured JAK2/JAK1 IC50 ratio.

Report measured JAK2/JAK1 IC50 ratio; entry is N#CC[C@@H]([C@H]1CCN(c2ccnc(Cl)c2C#N)C1)n1cc(-c2ncnc3[nH]ccc23)cn1 [Example 123, trifluoroacetate]
>16.7

Report measured JAK2/JAK1 IC50 ratio; entry is N#CCC(C1CCN(c2ccc3c(n2)C(F)(F)CC3)C1)n1cc(-c2ncnc3[nH]ccc23)cn1 (single isomer, unassigned) [Example 157, bis(trifluoroacetate)]
>5.3

# next molecule below
Report measured JAK2/JAK1 IC50 ratio; entry is C#Cc1cnc(N2CC[C@H]([C@H](CC#N)n3cc(-c4ncnc5[nH]ccc45)cn3)C2)c(C#N)n1 [Example 143, trifluoroacetate]
>4.5

---

Target: Jak2 (a.a. 828-1132) (Homo sapiens)
Construct: Jak2 (a.a. 828-1132); His tag (N); made in house; host or cells: insect cells (baculovirus)
Assay: In vitro JAK kinase assay (HTRF, phosphorylation of a biotinylated peptide), JAK2, reported as JAK2/JAK1 ratio
Format: biochemical
Details: Assay Conditions Km (ATP 90 μM for Jak1, 30 μM for Jak2)
Experimental: Compounds herein were tested for inhibitory activity of JAK targets according to the following in vitro assay described in Park et al., Analytical Biochemistry 1999, 269, 94-104. […] The phosphorylated peptide was detected by homogenous time resolved fluorescence (HTRF). […] Binding to the Europium labeled antibody took place for 40 min and HTRF signal was measured on a Fusion plate reader (Perkin Elmer, Boston, Mass.). […]
quantity measured: JAK2/JAK1 IC50 ratio

Report measured JAK2/JAK1 IC50 ratio; entry is N#CCC(C1CCN(c2cncc(Cl)n2)C1)n1cc(-c2ncnc3[nH]ccc23)cn1 (single isomer, unassigned) [1 (rac)]
3

Report measured JAK2/JAK1 IC50 ratio; entry is N#CCC(C1CCN(c2nc3ncccc3o2)C1)n1cc(-c2ncnc3[nH]ccc23)cn1 (single isomer, unassigned)
2.4
